assay: DAX1 (NR0B1) inhibitors on StAR promoter, primary screen, cell-based, luminescence, SF-1 (NR5A1), full-length DAX-1 (AID 652010); conditions: HEK293T StAR-luciferase reporter, SF-1/DAX-1 repression relief; at 6.8 µM;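 also: higher inhibition means more luminescence from relief of DAX-1 repression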
The whole screen tested about 370,000 compounds, of which about 4,100 (1.1%) were called active.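 The calls were made as follows: active = inhibition above the mean over all tested compounds plus 3 SD (cut at about 3.6% in these data); inactive = the rest.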 Only a selection was taken, and actives are over-represented in it overall.
Labels: T for active, F for inactive

{"columns": ["compound", "classAssignment"],
 "data": [
  ["CCCCn1nc(C(=O)N2CCc3ccccc32)c2ccccc2c1=O", "F"],
  ["COC(=O)c1ccc2nc(-c3ccccc3)c(Cc3ccc(OC)cc3C)n2c1", "F"],
  ["CCOc1ccc(-n2c(SCC(=O)Nc3cc(C)c(NC(=O)c4ccccc4)cc3OC)nnc2-c2cccs2)cc1", "F"],
  ["Cc1ccc(OCc2nnc(SC/C=C/c3ccccc3)n2Cc2ccco2)cc1", "F"],
  ["C=CCN(C)CC#Cc1ccccc1", "F"],
  ["COc1ccccc1Cc1c(-c2ccc(Cl)cc2)nc2ccc(Cl)cn12", "F"],
  ["Cc1ccc2nc(-c3cccnc3)c(NC3CCCC3)n2c1", "F"],
  ["COc1ccc(N2CCN(CCNS(=O)(=O)c3ccc([N+](=O)[O-])cc3)CC2)cc1", "F"],
  ["O=C(c1cnn2ccccc12)N1CCc2ccccc21", "T"],
  ["O=C(c1ccncc1)N1CC[C@H]2[C@H](CCCN2Cc2ccc(F)cc2)C1", "F"],
  ["CC(OC(=O)c1ccccc1OCc1ccc(Cl)cc1)C(N)=O (configuration not stated)", "F"],
  ["Cc1ccc2nc(-c3ccccc3)c(CC3CCCCC3)n2c1", "T"],
  ["CN(CCNC(=O)c1cc2c(-c3ccccc3F)nn(C)c2s1)C1CCCCC1", "F"],
  ["O=C(c1ccc(-c2ccccc2)cc1)C1CCCN(C(=O)c2cncs2)C1 (configuration not stated)", "F"],
  ["CN(C(=O)c1cc2c(=O)n3ccccc3nc2s1)C1CCCCC1", "T"],
  ["Cc1ccc(-c2nc3c(C)cc(Br)cn3c2Cc2ccccc2)cc1", "F"],
  ["COC(=O)C[C@@H]1CC[C@H]2[C@@H](COc3ccc(NS(=O)(=O)CC(F)(F)F)cc3C(=O)N2C)O1", "F"],
  ["CN(C)Cc1cn(-c2ccc(-c3noc4c3C(=O)N(CC(=O)N3CCOCC3)CC4)cc2)nn1", "F"],
  ["Cc1ccc(-c2nc3ccc(Cl)cn3c2Cc2ccccc2)cc1", "T"],
  ["COc1ccccc1Cc1c(-c2ccc(F)cc2)nc2ccc(C)cn12", "T"],
  ["Cc1ccc2nc(C)c3c(c2c1)N(c1ccccc1)CC3", "F"],
  ["CCOCCCNC(=O)c1cc2c(=O)n3ccccc3nc2s1", "F"]
]}
